Numbers sourced from a melting point compilation (Tetko et al.).

A collection of molecules and their measured melting point

Below, each entry is followed by its recorded melting point result.
molecule=CCOc1ccc(N)c(C(F)(F)F)c1 assay_readout="melting point" measurement="69 to 71 °C"
molecule=Nc1sc2c(c1C(=O)NC1CC1)CCC2 assay_readout="melting point" measurement="170 to 172 °C"
molecule=C=CC(=O)NC(=O)NC assay_readout="melting point" measurement="174 to 176 °C"
molecule=CCC(=O)NCC(=O)O assay_readout="melting point" measurement="121 to 123 °C"
molecule=CCN(CC)c1ccc(C(=O)O)cn1 assay_readout="melting point" measurement="154 to 156 °C"

Could you share which melting point value was measured for CCNS(=O)(=O)c1ccc(F)c(C(=O)O)c1 ?
154 to 156 °C

Could you share which melting point value was measured for Cc1ccc(-c2cnnc(N)n2)o1 ?
274 to 276 °C

Could you share which melting point value was measured for COc1ccccc1-c1cc(C(=O)O)c2c(C)noc2n1 ?
229 to 231 °C

Could you share which melting point value was measured for CC(Cl)C(=O)Nc1nc2ccc(F)cc2s1 (stereo not given) ?
126 to 128 °C

Could you share which melting point value was measured for COc1ccccc1NS(=O)(=O)c1ccc(O)c(C(=O)O)c1 ?
172 to 174 °C

---

A collection of compounds and their measured melting point

Could you share which melting point value was measured for NNC(=S)NC1CCCC1 ?
76 to 78 °C

Could you share which melting point value was measured for O=C(O)CNC(=O)CNC(=O)c1ccco1 ?
208 to 210 °C

Could you share which melting point value was measured for CC(C)(C)OC(=O)NCCC(=O)NN ?
104 to 106 °C

Could you share which melting point value was measured for CCc1cc(N)c2ccccc2n1 ?
152 to 154 °C

Could you share which melting point value was measured for CC1C(=O)NC(=O)N1c1ccc(F)cc1 (stereo not drawn) ?
187 to 189 °C

---

A collection of compounds and their measured melting point

Could you share which melting point value was measured for O=S1(=O)CCC(Br)CC1 ?
127 to 129 °C

Could you share which melting point value was measured for COc1cc(C(=O)O)sc1S(N)(=O)=O ?
254 to 256 °C

Could you share which melting point value was measured for O=C1/C(=C\C=C\c2ccco2)CCC/C1=C\C=C\c1ccco1 ?
162 to 164 °C

Could you share which melting point value was measured for COCCOc1ccc(Cl)cc1S(N)(=O)=O ?
124 to 126 °C

Could you share which melting point value was measured for CC1CC(C)CN(S(=O)(=O)c2cccc(C(=O)O)c2)C1 (configuration not stated) ?
217 to 219 °C

Could you share which melting point value was measured for COc1cc(-c2nnc(CCl)o2)cc(OC)c1OC ?
121 to 123 °C

Could you share which melting point value was measured for Nc1nnc(Cc2cccc3ccccc23)o1 ?
224 to 226 °C

---

A collection of molecules and their measured melting point

Below, each entry is followed by its recorded melting point result.
molecule=Cn1cc(C(=O)Nc2ccc(O)cc2)cn1 assay_readout="melting point" measurement="231 to 233 °C"
molecule=Oc1ccc(-c2cnc3ccccc3n2)cc1 assay_readout="melting point" measurement="204 to 206 °C"
molecule=Nc1nc(Br)ccc1O assay_readout="melting point" measurement="153 to 155 °C"
molecule=COC(=O)Nc1cccc(N)c1 assay_readout="melting point" measurement="62 to 64 °C"
molecule=O=C(O)[C@H](Cc1ccccc1)N1C(=O)c2ccccc2C1=O assay_readout="melting point" measurement="179 to 181 °C"
molecule=CS(=O)(=O)Cc1c(C(=O)O)sc2ccccc12 assay_readout="melting point" measurement="276 to 278 °C"
molecule=NCc1cnn(-c2cccc(Cl)c2)c1 assay_readout="melting point" measurement="88 to 90 °C"
molecule=Nc1ccc(-n2ccnc2)nc1 assay_readout="melting point" measurement="114 to 116 °C"

Could you share which melting point value was measured for NNc1ccc(S(=O)(=O)NC2CCCC2)cn1 ?
167 to 169 °C

Could you share which melting point value was measured for NC(=O)COc1ccc(/C=C/C(=O)O)cc1 ?
295 to 297 °C

Could you share which melting point value was measured for Cc1nc2cc(C(F)(F)F)ccc2s1 ?
63 to 65 °C

Could you share which melting point value was measured for NC(=O)Nc1cccc2ccccc12 ?
284 to 286 °C

Could you share which melting point value was measured for COc1ccc(/C=C/C(=O)O)cc1S(=O)(=O)Cl ?
184 to 186 °C

Could you share which melting point value was measured for Cn1cc(C=O)c(-c2ccccc2)n1 ?
59 to 61 °C

Could you share which melting point value was measured for Cc1noc(C)c1C(C)C(=O)O (centres undefined) ?
101 to 103 °C
